# assayedTarget: Cathepsin B (Homo sapiens, UniProt P07858)
# assayName: Inhibition of cathepsin-B using Z-Arg-Arg AMC as substrate by fluorescence assay relative to control
# testSettings: concentration not given here
Would you kindly list inhibition for each of these compounds?
Reply with the number and its unit after it.

CC(=O)N(Cc1ccccc1)C[C@@H](O)[C@H](Cc1ccccc1)NC(=O)OCc1ccccc1; 8%

Batch: inhibition for all items listed.
1. C[C@H](NC(=O)[C@H](Cc1ccccc1)NC(=O)OCc1ccccc1)C(=O)C=[N+]=[N-]
2. [N-]=[N+]=CC(=O)N(Cc1ccccc1)C[C@@H](O)[C@H](Cc1ccccc1)NC(=O)OCc1ccccc1
3. CCCNC(=O)[C@H]1O[C@@H]1C(=O)N[C@H](C(=O)N1CCC[C@H]1C(=O)OC)[C@@H](C)CC

A.
100%
13%
100%
